These entries and their values trace back to patent US20150259331A1.

# System: P. falciparum W2
# Assay info: P. falciparum W2 assay
# Type: cell-based
# Conditions: strain W2; read-out: P. falciparum W2 (EC50)
Binary call on EC50 with cut-off 200 nM: strictly below means 1, and equality or higher means 0.

Solved cases (3 shown):
>>> assigned_label("Fc1cccc(COc2ccc(Nc3ncnc4ccc(-c5ccc(N6CCNCC6)cc5)cc34)cc2Cl)c1 [NEU-710]")
0
>>> assigned_label("O=C(c1cncc(-c2ccc3ncnc(Nc4ccc(OCc5cccc(F)c5)c(Cl)c4)c3c2)c1)N1CCOCC1 [NEU-640]")
0
>>> assigned_label("CN1CCN(S(=O)(=O)c2ccc(-c3ccc4ncnc(Nc5ccccc5)c4c3)cc2)CC1 [NEU-767]")
0

[in] is_below(EC50, 200 nM) for O=C(c1cccc(-c2ccc3ncnc(Nc4ccc(OCc5cccc(F)c5)c(Cl)c4)c3c2)c1)N1CCCC1 [NEU-618] ?
[out] 1

[in] Just wondering, is EC50 of Fc1cccc(COc2ccc(Nc3ncnc4ccc(-c5ccc(CN6CCOCC6)cc5)cc34)cc2Cl)c1 [Compound 23d] below 200 nM?
[out] 1

###

Here, each record is paired with measured CC50 data.
# System: HepG2 cells
# Assay info: HepG2 cell toxicity (MTT) assay
# Format: cell-based
# Conditions: Table 13; read-out: HepG2 TC50
# Method: Then 2 μL of DMSO (control) or different concentrations of drugs prepared from 200× DMSO stocks were added to the cultures. […] All experiments were repeated thrice in independent studies where each dose was administered in duplicate (total n=6). HepG2 Cell Toxicity Assay. […] HepG2 Cell Toxicity assay. […] Absorbance was determined in all wells using a Tecan iControl 1.6 Infinite plate reader.

Use these answered entries as a reference point.
>>> obs_value("O=S(=O)(c1ccc(-c2ccc3cnnc(Nc4ccc(OCc5ccccc5)c(Cl)c4)c3c2)cc1)N1CCOCC1")
"> 5.2 µM"
>>> obs_value("CN1CCCN(S(=O)(=O)c2ccc(-c3ccc4ncc(C#N)c(Nc5ccc(OCc6cccc(F)c6)c(Cl)c5)c4c3)cc2)CC1")
"> 15 µM"
>>> obs_value("CN1CCN(S(=O)(=O)c2ccc(-c3ccc4c(Nc5ccc(OCc6cccc(F)c6)c(Cl)c5)nncc4c3)cc2)CC1")
"> 15 µM"

As a next step, examine the compound that follows.
O=S(=O)(c1ccc(-c2ccc3c(Nc4ccc(OCc5ccccc5)c(Cl)c4)cnnc3c2)cc1)N1CCOCC1 on HepG2 cells gives CC50 = > 11 µM

###

# System: L. major promastigote
# Assay info: L. major promastigote assay
# Assay type: cell-based
# Conditions: Leishmania major
pEC50: −log10 of the molar value.
Quantity name: pEC50

>>> obs_value("Fc1cccc(COc2ccc(Nc3nncc4cc(-c5cccc(N6CCOCC6)c5)ccc34)cc2Cl)c1")
"< 4.82"

With L. major promastigote as the test system, Fc1cccc(COc2ccc(Nc3nccc4cc(-c5cccc(N6CCOCC6)c5)ccc34)cc2Cl)c1 showed pEC50 of < 4.82

Record O=S(=O)(c1ccc(-c2ccc3nncc(Nc4ccc(OCc5ccccc5)c(Cl)c4)c3c2)cc1)N1CCOCC1 has L. major promastigote pEC50 equal to < 4.82

###

# Test system: L. major amastigote
# Assay info: L. major amastigote assay
# Assay type: cell-based
# Conditions: Leishmania major
pEC50: −log10 of the molar value.
Quantity name: pEC50

>>> obs_value("c1ccc(Nc2ncnc3ccc(-c4cccc(N5CCOCC5)c4)cc23)cc1 [Compound 23o]")
"< 4.82"

Form field, pEC50 with L. major amastigote, item O=S(=O)(c1ccc(-c2ccc3c(Nc4ccc(OCc5ccccc5)c(Cl)c4)nccc3c2)cc1)N1CCOCC1 : < 5.52

Item COc1cc(Nc2ncnc3ccc(-c4ccc(S(=O)(=O)N5CCOCC5)cc4)cc23)ccc1OCc1cccc(F)c1 [Compound 20o] ; assay system L. major amastigote; pEC50 reported as < 4.82
